tested on: ES1 (Ewing's Sarcoma); assay: Bliss excess, mean over the matrix (fraction); higher = more synergy;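 note: after 72 h of two-drug dosing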
property-measured: Bliss excess

# compound, assay-target, property-measured, observed
records = [
    ("CC1(C)CCC(CN2CCN(c3ccc(C(=O)NS(=O)(=O)c4ccc(NCC5CCOCC5)c([N+](=O)[O-])c4)c(Oc4cnc5[nH]ccc5c4)c3)CC2)=C(c2ccc(Cl)cc2)C1 [Venetoclax] + CS(=O)(=O)CCNCc1ccc(-c2ccc3ncnc(Nc4ccc(OCc5cccc(F)c5)c(Cl)c4)c3c2)o1 [Lapatinib] (first compound max 1 µM, 7x7, partner max 10 µM)", "ES1 (Ewing's Sarcoma)", "Bliss excess", -0.0215),
    ("Cc1c2c(nn1C)CSCc1cc(n(C)n1)CSc1cc(c3ccccc3c1)OCCCc1c(C(=O)O)n(C)c3c-2c(Cl)ccc13 [AZD5991] + C[C@@H](Nc1cc(F)cc(F)c1)c1cc(C(=O)N(C)C)cc2c(=O)cc(N3CCOCC3)oc12 [AZD8186] (first compound max 1 µM, 7x7, partner max 3 µM)", "ES1 (Ewing's Sarcoma)", "Bliss excess", 0.013),
    ("C[C@@H](c1ccc2nccn2c1)n1nnc2ncc(-c3cnn(C)c3)nc21 [Savolitinib] + Cc1c2c(nn1C)CSCc1cc(n(C)n1)CSc1cc(c3ccccc3c1)OCCCc1c(C(=O)O)n(C)c3c-2c(Cl)ccc13 [AZD5991] (first compound max 1 µM, 7x7, partner max 1 µM)", "ES1 (Ewing's Sarcoma)", "Bliss excess", -0.0152),
    ("Cc1c2c(nn1C)CSCc1cc(n(C)n1)CSc1cc(c3ccccc3c1)OCCCc1c(C(=O)O)n(C)c3c-2c(Cl)ccc13 [AZD5991] + CC1(C)CCC(CN2CCN(c3ccc(C(=O)NS(=O)(=O)c4ccc(NCC5CCOCC5)c([N+](=O)[O-])c4)c(Oc4cnc5[nH]ccc5c4)c3)CC2)=C(c2ccc(Cl)cc2)C1 [Venetoclax] (first compound max 1 µM, 7x7, partner max 1 µM)", "ES1 (Ewing's Sarcoma)", "Bliss excess", 0.0817),
    ("CCc1c2c(nc3ccc(O)cc13)-c1cc3c(c(=O)n1C2)COC(=O)[C@]3(O)CC [SN-38] + O=C(c1cc(Cc2n[nH]c(=O)c3ccccc23)ccc1F)N1CCN(C(=O)C2CC2)CC1 [Olaparib] (first compound max 0.3 µM, 7x7, partner max 10 µM)", "ES1 (Ewing's Sarcoma)", "Bliss excess", 0.0779),
    ("CN(C)CCCOc1ccc(-c2ccc3ncc4c(c3c2)n(C2CCOCC2)c(=O)n4C)cn1 [AZD0156] + C[C@@H]1COCCN1C2=NC(=NC(=C2)C3(CC3)[S@](=N)(=O)C)C4=C5C=CNC5=NC=C4 [AZD6738] (first compound max 1 µM, 7x7, partner max 10 µM)", "ES1 (Ewing's Sarcoma)", "Bliss excess", 0.0554),
    ("C[C@@H]1COCCN1c1cc(C2([S@](C)(=N)=O)CC2)nc(-c2ccnc3[nH]ccc23)n1 [AZD6738] + O=C(c1cc(Cc2n[nH]c(=O)c3ccccc23)ccc1F)N1CCN(C(=O)C2CC2)CC1 [Olaparib] (first compound max 10 µM, 7x7, partner max 10 µM)", "ES1 (Ewing's Sarcoma)", "Bliss excess", -0.0157),
]
